molecular target: Gamma-secretase; experiment: Inhibition of gamma secretase (unknown origin)-mediated notch processing by cell based assay
pIC50: −log10 of the molar value.
MEASUREMENT NAME: pIC50

1. CCC(CC)(CN(Cc1ccccc1)C(C)C)C(O)c1ccc2ccccc2c1 (racemic) | < 4.12
2. CC(C)N(CCC(O)c1ccc2ccccc2c1)Cc1ccccc1 (racemic) | < 4.00

Now consider a different molecule.
Asked: If you can, please state the reported pIC50 value of `CCC(CC)N(Cc1ccc(C(=O)O)cc1)S(=O)(=O)c1ccc(Cl)cc1` .
Given back: 5.00

----------
molecular target: Gamma-secretase (Homo sapiens) (UniProt Q96BI3+Q9NZ42+Q8WW43+P49768+Q92542+P49810); test: Inhibition of human gamma secretase mediated amyloid beta (1 to 40) production expressed in CHO cells at 100 uM using APP based Flag-C-100 as substrate after 4 hrs by ELISA; type: cell-based
MEASUREMENT NAME: inhibition (%)
The reply should contain only the number, in %.

1. COc1cc(CN(CCC(O)c2ccc3ccccc3c2)C(C)C)cc(OC)c1 (racemic) | 17
2. CC(C)N(CCC(O)c1ccc2ccccc2c1)Cc1ccc(C#N)cc1 (racemic) | 19
3. CCC(CC)(CN(Cc1ccccc1)C(C)C)C(O)c1ccc2ccccc2c1 (racemic) | 82
4. OC(CCN1CCN(c2ccc(F)cc2)CC1)c1ccc2ccccc2c1 (racemic) | 61

Now consider a different compound.
Asked: For Gamma-secretase (Homo sapiens) (UniProt Q96BI3+Q9NZ42+Q8WW43+P49768+Q92542+P49810), provide inhibition of CC(C)N(CCC(O)c1cc(C(F)(F)F)cc(C(F)(F)F)c1)Cc1ccccc1 (racemic) please.
Given back: 15
